- ASSAY: blockers of RIG-like receptor reporter activation – cell-based, Sendai virus stimulus, luciferase, 10K MLSCN set, TLR/RLR signaling modifier project, primary screen (AID 602276);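 further: firefly luciferase from ISG56 promoter only with Renilla not read in this screen; 0% = Sendai virus plus DMSO and 100% = medium plus DMSO without virus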
- CONDITION LABEL: HEK293 RL24 IRF3 luciferase reporter, at 10 µM, hits give high values
Listed next: entries and their corresponding inhibition.
Record the value in %, omitting the unit from your answer.

Completed entries (count: 4):
What does the data say about its inhibition? Entry: COc1nc(OC)nc(N2CCC(C(=O)NC3CCCCCC3)CC2)n1
-10

Find the recorded inhibition belonging to CCCCC(c1nnnn1C1CCCC1)N1CCN(C2CCCCC2)CC1 (configuration not stated) and report it.
10

Fill in: inhibition of Cc1nnc(SCCn2c(N3CC(C)CC(C)C3)nc3c2c(=O)n(C)c(=O)n3C)s1 (configuration not stated) is ___
15.7

State the recorded inhibition for this entry: COc1ccc(Cl)cc1NC(=O)COc1cccc(-n2cnnn2)c1
6.87

Continuing:
Can you share its inhibition? I mean this compound: COc1ccc(-c2nc(N)nc(C)c2Oc2ccccc2Br)c(O)c1
10.9

Looking for the measured inhibition of CN(c1cccc(NS(=O)(=O)c2cccs2)c1)S(C)(=O)=O , can you help?
21.9

Report inhibition for Cc1c(C(=O)OC(C)C)[nH]c2c1C(=O)CCC2 please.
-15.8

Would you mind telling me what inhibition value was observed for COCCN(CC(=O)NC1CCCCC1)C(=O)CSc1nc2ccccc2o1 ?
2.87

State the recorded inhibition for this entry: CC(=O)OCC1=C(C(=O)O)N2C(=O)[C@@H](NC(=O)Cc3cccs3)[C@H]2SC1
10.9

I have this compound here, COCCOC(=O)C1=C(C)N=c2s/c(=C\c3cccs3)c(=O)n2C1c1cccs1 (configuration not stated) , and I need its recorded inhibition.
-5.37

Looking for the measured inhibition of O=C(CSc1nc2ccccc2o1)N1CCN(c2ccc(Cl)cc2)CC1 , can you help?
16.8

* * *

- SYSTEM: Voltage-gated potassium channel subunit beta-2 (Rattus norvegicus) (UniProt P62483)
- Sequence (P62483 whole entry, looked up): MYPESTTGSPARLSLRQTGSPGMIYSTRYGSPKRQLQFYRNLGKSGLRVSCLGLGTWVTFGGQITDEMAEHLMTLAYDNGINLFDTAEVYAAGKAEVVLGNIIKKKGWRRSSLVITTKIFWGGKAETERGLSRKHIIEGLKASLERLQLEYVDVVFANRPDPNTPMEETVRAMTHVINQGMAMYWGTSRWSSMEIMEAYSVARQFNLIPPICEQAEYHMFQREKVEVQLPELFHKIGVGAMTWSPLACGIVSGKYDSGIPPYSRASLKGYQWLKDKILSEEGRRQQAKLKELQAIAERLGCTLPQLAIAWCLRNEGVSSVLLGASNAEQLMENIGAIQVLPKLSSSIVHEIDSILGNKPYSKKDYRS
- ASSAY: inhibitors of rat Kvbeta2 reductase activity – biochemical, NADPH fluorescence, primary screen (AID 622);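 further: slope of raw intensity against log time taken from 70 to 1610 s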
- CONDITION LABEL: recombinant KvBeta, 4-cyanobenzaldehyde reduction, at 10 µM, hits give high values
MEASURE: fluorescence slope
Reply with just the number.

Identify the measured fluorescence slope of CS(=O)(=O)N(CC(=O)NCc1ccccn1)c1ccc2c(c1)OCCO2 for Voltage-gated potassium channel subunit beta-2 (Rattus norvegicus) (UniProt P62483).
-0.515

Request - read-out fluorescence slope | tested on Voltage-gated potassium channel subunit beta-2 (Rattus norvegicus) (UniProt P62483) | compound CN(C)c1ccc(NC(=O)CSCc2nc3c(nnn3Cc3ccc(F)cc3)c(=O)[nH]2)cc1
-0.204

Give the reported fluorescence slope for COc1ccc2c(=O)c3c(=O)n(Cc4ccco4)c(C(C)C)nc3oc2c1 (system: Voltage-gated potassium channel subunit beta-2 (Rattus norvegicus) (UniProt P62483)).
-0.564

Form field: fluorescence slope recorded for CC1Cc2ccccc2N1C(=O)Cc1cccs1 (stereo not given) with Voltage-gated potassium channel subunit beta-2 (Rattus norvegicus) (UniProt P62483) (enter value)
-0.504

Provide value of fluorescence slope for this record tested with Voltage-gated potassium channel subunit beta-2 (Rattus norvegicus) (UniProt P62483): O=C(O)CCC(=O)Nc1nc(-c2ccccc2)cs1
-0.449

Look up fluorescence slope with Voltage-gated potassium channel subunit beta-2 (Rattus norvegicus) (UniProt P62483) for this compound: O=C(Cc1ccsc1-c1ccccc1)NO
-0.46

Entry CCc1cc2c(NCCC(=O)O)ncnc2s1 , system Voltage-gated potassium channel subunit beta-2 (Rattus norvegicus) (UniProt P62483): what fluorescence slope was measured?
-0.562

# get_value(readout= fluorescence slope, system= Voltage-gated potassium channel subunit beta-2 (Rattus norvegicus) (UniProt P62483)) for CC(C)C(=O)Nc1nnc(CCc2nnc(NC(=O)C(C)C)s2)s1
-0.552
